biological target: α2 receptors; experiment: [3H]yohimbine receptor binding in rat cortex; design: species or system Wistar rat; conditions: listed as KMST
measured-parameter: Ki (µM)

{"columns": ["compound", "quantity-unit", "reported-result"],
 "data": [
  ["CC=Cc1ccc(OCC(O)CN2CCN(c3cccc(Cl)c3)CC2)c(OC)c1 (stereo not shown)", "µM", 1.39]
]}

###

molecular target: β1 receptors (Rattus norvegicus, UniProt P18090)
Sequence (P18090 whole entry): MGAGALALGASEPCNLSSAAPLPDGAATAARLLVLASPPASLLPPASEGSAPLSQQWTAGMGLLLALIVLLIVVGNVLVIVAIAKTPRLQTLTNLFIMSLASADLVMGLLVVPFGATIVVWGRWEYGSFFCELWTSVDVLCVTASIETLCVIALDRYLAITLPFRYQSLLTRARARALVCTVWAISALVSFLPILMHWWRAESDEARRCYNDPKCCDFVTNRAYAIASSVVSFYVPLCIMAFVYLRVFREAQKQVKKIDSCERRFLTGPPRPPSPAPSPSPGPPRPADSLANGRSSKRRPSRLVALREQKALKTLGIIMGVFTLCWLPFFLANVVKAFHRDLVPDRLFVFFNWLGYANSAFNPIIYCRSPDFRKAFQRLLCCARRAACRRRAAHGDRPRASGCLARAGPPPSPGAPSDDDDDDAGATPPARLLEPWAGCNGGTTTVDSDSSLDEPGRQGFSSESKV
Recorded measurements of Ki, one per entry

{"columns": ["compound", "Ki (nM)"],
 "data": [
  ["CC(CCc1ccccc1)NCC(O)c1ccc(O)c(C(N)=O)c1 (stereo not shown) [Labetalol, reference compound]", 4.17],
  ["CC=Cc1ccc(OCC(O)CN2CCN(c3ccc(Cl)cc3)CC2)c(OC)c1 (stereo not shown)", 106],
  ["CC=Cc1ccc(OCCCN2CCN(c3cccc(Cl)c3)CC2)c(OC)c1", 113],
  ["CC=Cc1ccc(OCC(O)CN2CCN(c3cccc(Cl)c3)CC2)c(OC)c1 (stereo not shown)", 72.8]
]}

###

target: 5-HT re-uptake (Rattus norvegicus, UniProt P31652); construct: the cerebral cortex or striatum was dissected and crude synaptosomes were prepared; test: 5-HT re-uptake in cerebral cortex synaptosomes; settings: read-out: IC50 of 5-HT uptake inhibition
Sequence (P31652 whole entry): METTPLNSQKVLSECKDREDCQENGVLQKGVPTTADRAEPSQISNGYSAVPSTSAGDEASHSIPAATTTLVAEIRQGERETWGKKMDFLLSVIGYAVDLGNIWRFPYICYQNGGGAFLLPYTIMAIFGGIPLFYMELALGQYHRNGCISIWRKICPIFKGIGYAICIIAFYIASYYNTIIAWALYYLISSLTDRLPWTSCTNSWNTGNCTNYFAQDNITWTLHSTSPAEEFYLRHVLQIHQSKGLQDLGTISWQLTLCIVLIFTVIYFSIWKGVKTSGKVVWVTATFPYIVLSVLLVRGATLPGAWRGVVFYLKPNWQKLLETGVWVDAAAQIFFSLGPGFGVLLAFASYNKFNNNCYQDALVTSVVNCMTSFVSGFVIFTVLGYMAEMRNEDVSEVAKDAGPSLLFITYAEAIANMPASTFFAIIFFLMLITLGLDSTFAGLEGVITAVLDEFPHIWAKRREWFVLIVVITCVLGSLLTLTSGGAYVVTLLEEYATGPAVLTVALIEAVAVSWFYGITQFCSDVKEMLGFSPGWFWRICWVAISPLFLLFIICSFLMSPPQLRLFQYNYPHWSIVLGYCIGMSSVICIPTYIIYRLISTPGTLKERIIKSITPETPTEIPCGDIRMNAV
pIC50: −log10 of the molar value.
measured-parameter: pIC50

{"columns": ["compound", "reported-result"],
 "data": [
  ["CC=Cc1ccc(OCC(O)CN2CCN(c3cccc(Cl)c3)CC2)c(OC)c1 (stereo not shown)", 4.47]
]}

###

Examples of molecules with documented IC50 follow.
test system: serotonin-induced human platelet aggregation; assay: serotonin-induced human platelet aggregation; assay type: cell-based; conditions: serotonin 5 μM, PRP; read-out: IC50 serotonin-induced human platelet aggregation

{"columns": ["molecule", "IC50"],
 "data": [
  ["CC=Cc1ccc(OCC(O)CN2CCN(c3ccc(Cl)cc3)CC2)c(OC)c1 (stereo not drawn) [Compound 2]", "4.73 nM"],
  ["CC=Cc1ccc(OCCCN2CCN(c3cccc(Cl)c3)CC2)c(OC)c1 [Compound 3]", "530 nM"],
  ["CC=Cc1ccc(OCC(O)CN2CCN(c3cccc(Cl)c3)CC2)c(OC)c1 (stereo not drawn) [Compound 1]", "3.63 nM"]
]}

###

target: 5-HT1A (Rattus norvegicus, UniProt P19327); assay: [3H]WAY100635 receptor binding
Sequence (P19327 whole entry): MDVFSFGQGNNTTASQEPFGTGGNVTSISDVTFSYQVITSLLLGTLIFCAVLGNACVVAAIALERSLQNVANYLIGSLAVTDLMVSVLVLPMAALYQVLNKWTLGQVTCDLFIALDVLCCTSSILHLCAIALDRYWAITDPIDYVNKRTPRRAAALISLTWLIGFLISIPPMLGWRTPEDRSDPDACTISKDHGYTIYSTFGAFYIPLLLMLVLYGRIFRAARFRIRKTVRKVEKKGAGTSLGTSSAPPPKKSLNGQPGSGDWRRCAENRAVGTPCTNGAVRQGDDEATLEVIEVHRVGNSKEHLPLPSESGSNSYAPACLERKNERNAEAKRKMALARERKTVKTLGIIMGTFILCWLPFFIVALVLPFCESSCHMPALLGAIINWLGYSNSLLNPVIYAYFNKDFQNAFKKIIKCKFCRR

{"columns": ["compound", "Ki"],
 "data": [
  ["O=C(c1ccc(F)cc1)C1CCN(CCn2c(=O)[nH]c3ccccc3c2=O)CC1 [Ketanserin, reference compound]", "> 10 µM"]
]}

###

Recorded Ki values (β2 receptors (Rattus norvegicus, UniProt P10608)) are given below.
measured-parameter: Ki

{"columns": ["molecule", "reported-result"],
 "data": [
  ["CC=Cc1ccc(OCCCN2CCN(c3cccc(Cl)c3)CC2)c(OC)c1", "> 10 µM"],
  ["CC=Cc1ccc(OCC(O)CN2CCN(c3ccc(Cl)cc3)CC2)c(OC)c1 (stereo not drawn)", "> 10 µM"],
  ["CC=Cc1ccc(OCC(O)CN2CCN(c3cccc(Cl)c3)CC2)c(OC)c1 (stereo not drawn)", "> 10 µM"]
]}

###

pKi: −log10 of the molar value.
So I've got pKi readings for 5-HT2A receptor (Rattus norvegicus), take a look.
measured-parameter: pKi

{"columns": ["compound", "system-under-test", "measured-parameter", "reported-result"],
 "data": [
  ["CC=Cc1ccc(OCCCN2CCN(c3cccc(Cl)c3)CC2)c(OC)c1", "5-HT2A receptor (Rattus norvegicus)", "pKi", 8.51],
  ["CC=Cc1ccc(OCC(O)CN2CCN(c3cccc(Cl)c3)CC2)c(OC)c1 (stereo not drawn)", "5-HT2A receptor (Rattus norvegicus)", "pKi", 7.48],
  ["CC=Cc1ccc(OCC(O)CN2CCN(c3ccc(Cl)cc3)CC2)c(OC)c1 (stereo not drawn)", "5-HT2A receptor (Rattus norvegicus)", "pKi", 8.52]
]}

###

test system: phenylephrine-induced contractions in rat thoracic aorta; experiment: LPS-induced vascular hyporeactivity: phenylephrine-induced contractions in rat thoracic aorta; type: in vivo, Wistar rat; conditions: agent given before LPS injection (30 min); pD2 to phenylephrine

{"columns": ["compound", "pD2 at 5th hr"],
 "data": [
  ["Cl.N=C(N)NN [Aminoguanidine, aminoguanidine HCl]", 5.44],
  ["O=c1n(CCCN2CCN(c3cccc(Cl)c3)CC2)nc2ccccn12 [Trazodone]", 3.99],
  ["COC(=O)[C@@H]1[C@H]2C[C@H]3c4[nH]c5ccccc5c4CCN3C[C@@H]2CC[C@@H]1O [Yohimbine]", 3.44],
  ["CC=Cc1ccc(OCC(O)CN2CCN(c3cccc(Cl)c3)CC2)c(OC)c1 (stereo not shown) [Compound 1]", 6.29]
]}

###

biological target: 5-HT1B (Rattus norvegicus, UniProt P28564); construct: from tissue; host or cells: Wistar rat cortex membranes; test: [3H]GR125743 receptor binding in rat cortex; set-up: species or system Wistar rat; conditions: [3H]GR125743 (5-HT1B/1D), rat cortex; read-out: Ki 5-HT1B
Sequence (P28564 whole entry): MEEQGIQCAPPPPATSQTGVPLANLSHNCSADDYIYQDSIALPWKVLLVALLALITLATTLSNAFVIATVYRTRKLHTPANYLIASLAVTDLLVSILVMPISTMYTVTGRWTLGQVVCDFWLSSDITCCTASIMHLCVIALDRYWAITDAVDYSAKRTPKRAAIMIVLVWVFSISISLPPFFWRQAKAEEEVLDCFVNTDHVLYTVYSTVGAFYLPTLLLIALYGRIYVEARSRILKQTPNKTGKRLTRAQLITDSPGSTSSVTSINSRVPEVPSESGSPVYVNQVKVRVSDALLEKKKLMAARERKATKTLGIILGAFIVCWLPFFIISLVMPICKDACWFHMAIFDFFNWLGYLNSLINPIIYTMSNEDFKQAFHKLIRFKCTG
pKi: −log10 of the molar value.
measured-parameter: pKi

{"columns": ["compound", "qualifier-symbol", "reported-result"],
 "data": [
  ["CC=Cc1ccc(OCCCN2CCN(c3cccc(Cl)c3)CC2)c(OC)c1 [Compound 3]", "=", 6.11],
  ["O=C(c1ccc(F)cc1)C1CCN(CCn2c(=O)[nH]c3ccccc3c2=O)CC1 [Ketanserin, reference compound]", "<", 5.00],
  ["CC=Cc1ccc(OCC(O)CN2CCN(c3ccc(Cl)cc3)CC2)c(OC)c1 (stereo not shown) [Compound 2]", "=", 5.96],
  ["CC=Cc1ccc(OCC(O)CN2CCN(c3cccc(Cl)c3)CC2)c(OC)c1 (stereo not shown) [Compound 1]", "=", 6.17]
]}

###

Collected Ki values appear next to each entry.
biological target: α2 receptors; assay: [3H]yohimbine receptor binding in rat cortex; parameters: species or system Wistar rat

{"columns": ["compound", "qualifier-symbol", "Ki / nM"],
 "data": [
  ["CC=Cc1ccc(OCC(O)CN2CCN(c3ccc(Cl)cc3)CC2)c(OC)c1 (stereo not drawn)", "=", 1970],
  ["CC(C)NCC(O)COc1ccc(CC(N)=O)cc1 (stereo not drawn)", ">", 10000],
  ["NCCc1c[nH]c2ccc(O)cc12 [Compound 5-HT, 5-Hydroxytryptamine]", ">", 10000],
  ["CC=Cc1ccc(OCC(O)CN2CCN(c3cccc(Cl)c3)CC2)c(OC)c1 (stereo not drawn)", "=", 1840],
  ["O=C(c1ccc(F)cc1)C1CCN(CCn2c(=O)[nH]c3ccccc3c2=O)CC1 [Ketanserin, reference compound]", "=", 2270],
  ["CC=Cc1ccc(OCCCN2CCN(c3cccc(Cl)c3)CC2)c(OC)c1", "=", 9290]
]}

###

Biological target: α1 receptors
Test: [3H]prazosin receptor binding in rat cortex
Experimental: The homogenate was pressure filtered through muslin. Filtrate was centrifuged at 1000 g for 10 min. […] Protein content was determined by Bradford's method.
pKi: −log10 of the molar value.

{"columns": ["compound", "system-under-test", "qualifier-symbol", "pKi"],
 "data": [
  ["CC=Cc1ccc(OCC(O)CN2CCN(c3ccc(Cl)cc3)CC2)c(OC)c1 (stereo not shown) [Compound 2]", "α1 receptors", "=", 7.33],
  ["O=C(c1ccc(F)cc1)C1CCN(CCn2c(=O)[nH]c3ccccc3c2=O)CC1 [Ketanserin, reference compound]", "α1 receptors", "=", 7.80],
  ["CC=Cc1ccc(OCC(O)CN2CCN(c3cccc(Cl)c3)CC2)c(OC)c1 (stereo not shown) [Compound 1]", "α1 receptors", "=", 6.85],
  ["NCCc1c[nH]c2ccc(O)cc12 [Compound 5-HT, 5-Hydroxytryptamine]", "α1 receptors", "<", 5.00],
  ["CC=Cc1ccc(OCCCN2CCN(c3cccc(Cl)c3)CC2)c(OC)c1 [Compound 3]", "α1 receptors", "=", 6.85],
  ["CC(C)NCC(O)COc1ccc(CC(N)=O)cc1 (stereo not shown) [Atenolol]", "α1 receptors", "<", 5.00],
  ["CC(CCc1ccccc1)NCC(O)c1ccc(O)c(C(N)=O)c1 (stereo not shown) [Labetalol, reference compound]", "α1 receptors", "=", 7.28]
]}

###

Here the recorded pKi is given for each entry.
target: M2; assay: M2 receptor binding
pKi: −log10 of the molar value.
measured-parameter: pKi

{"columns": ["molecule", "system-under-test", "reported-result"],
 "data": [
  ["CC=Cc1ccc(OCC(O)CN2CCN(c3cccc(Cl)c3)CC2)c(OC)c1 (stereo not drawn)", "M2", "< 5.00"],
  ["CC=Cc1ccc(OCCCN2CCN(c3cccc(Cl)c3)CC2)c(OC)c1", "M2", "< 5.00"],
  ["CC=Cc1ccc(OCC(O)CN2CCN(c3ccc(Cl)cc3)CC2)c(OC)c1 (stereo not drawn)", "M2", "< 5.00"]
]}

From: patent US6887878B2
